Tested on: P. falciparum K1 (Thailand)
ASSAY SUMMARY: [3H]-hypoxanthine incorporation assay, K1
Format: cell-based, Plasmodium falciparum
SETUP CONDITIONS: Plasmodium falciparum, K1, read-out: 50% inhibitory concentration (IC50)
PROPERTY: pIC50
Scale note: pIC50 = -log10(concentration in M).

So for C[C@H]1[C@H](OC(=O)CCC(=O)O)O[C@@H]2O[C@@]3(C)CC[C@H]4[C@H](C)CC[C@@H]1[C@@]24OO3 [Artesunate, artesunate] , the logged pIC50 turned out to be 8.57

So for CCN(CC)CCCC(C)Nc1ccnc2cc(Cl)ccc12 (centres unmarked) , the logged pIC50 turned out to be 6.52

---

System: P. vivax clinical isolates (Papua, Indonesia)
ASSAY SUMMARY: Ex vivo drug susceptibility, P. vivax clinical isolates
Assay type: cell-based, Plasmodium vivax
SETUP CONDITIONS: Plasmodium vivax, read-out: median IC50
Procedure: […]. Thick blood films made from each well were stained with 5% Giemsa solution for 30 min and examined microscopically. The number of schizonts per 200 asexual-stage parasites was determined for each drug concentration and normalized to the control well.
PROPERTY: pIC50
Scale note: pIC50 = -log10(concentration in M).

So for CCN(CC)CCCC(C)Nc1ccnc2cc(Cl)ccc12 (stereo not shown) , the logged pIC50 turned out to be 7.36

Hello, the source for this data is paper PMC5049785, in case you need it.
